Record: log10(Ki) reported on Gonadotropin-releasing hormone receptor (Rattus norvegicus) (UniProt P30969).
Sequence (P30969 whole entry, looked up): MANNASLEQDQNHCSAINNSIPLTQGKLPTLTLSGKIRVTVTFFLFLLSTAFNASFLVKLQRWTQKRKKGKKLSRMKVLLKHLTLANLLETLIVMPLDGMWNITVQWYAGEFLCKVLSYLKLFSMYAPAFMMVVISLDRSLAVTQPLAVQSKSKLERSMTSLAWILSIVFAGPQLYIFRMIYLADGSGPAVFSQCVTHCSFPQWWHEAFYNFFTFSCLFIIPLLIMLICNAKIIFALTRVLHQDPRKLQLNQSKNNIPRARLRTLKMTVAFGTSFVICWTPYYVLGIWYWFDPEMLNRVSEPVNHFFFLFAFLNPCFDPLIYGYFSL
Square brackets hold non-standard residues; d marks the D form. Peptide text beside a SMILES is read from it. pGlu = O=C1CC[C@@H](C(=O)O)N1
Answers are given as log10 of Ki in nM.

Compound: CC(C)C[C@H](NC(=O)[C@@H](Cc1ccc2ccccc2c1)NC(=O)[C@H](Cc1ccc(O)cc1)NC(=O)[C@H](CO)NC(=O)[C@H](Cc1cccc2ccccc12)N(C)C(=O)[C@H](Cc1cnc[nH]1)NC(=O)[C@@H]1CCC(=O)N1)C(=O)N[C@@H](CCCN=C(N)N)C(=O)N1CCC[C@H]1C(=O)NCC(N)=O [nafarelin 3NMe1Nal]
log10(Ki): -0.13

# log10(Ki) lookup, item CCNC(=O)[C@@H]1CCCN1C(=O)[C@H](CCCN=C(N)N)NC(=O)[C@H](CC(C)C)N(C)C(=O)[C@@H](CC(C)C)NC(=O)[C@H](Cc1ccc(O)cc1)NC(=O)[C@H](CO)NC(=O)[C@H](Cc1c[nH]c2ccccc12)NC(=O)[C@H](Cc1c[nH]cn1)NC(=O)[C@@H]1CCC(=O)N1 [leuprolide 7NMeLeu]
-0.80

And the next one, CCNC(=O)[C@@H]1CCCN1C(=O)[C@H](CCCN=C(N)N)NC(=O)[C@H](CC(C)C)NC(=O)[C@@H](CC(C)C)NC(=O)[C@H](Cc1ccc(O)cc1)NC(=O)[C@H](CO)NC(=O)[C@H](Cc1c[nH]c2ccccc12)NC(=O)[C@H](Cc1ccccc1)NC(=O)[C@@H]1CCC(=O)N1 [leuprolide 2 Phe] ([pGlu]FWSY[dL]LRP-NHEt) ?
0.34

Another: CC(C)C[C@H](NC(=O)[C@@H](Cc1ccc2ccccc2c1)N(C)C(=O)[C@H](Cc1ccc(O)cc1)NC(=O)[C@H](CO)NC(=O)[C@H](Cc1c[nH]c2ccccc12)NC(=O)[C@H](Cc1c[nH]cn1)NC(=O)[C@@H]1CCC(=O)N1)C(=O)N[C@@H](CCCN=C(N)N)C(=O)N1CCC[C@H]1C(=O)NCC(N)=O [nafarelin 6NMe2Nal]
0.43

Try this compound next: CC(C)C[C@H](NC(=O)[C@@H](Cc1ccc2ccccc2c1)NC(=O)[C@H](Cc1ccc(O)cc1)NC(=O)[C@H](CO)NC(=O)[C@H](Cc1c[nH]c2ccccc12)NC(=O)[C@H](Cc1c[nH]cn1)NC(=O)[C@@H]1CCC(=O)N1)C(=O)N(C)[C@@H](CCCN=C(N)N)C(=O)N1CCC[C@H]1C(=O)NCC(N)=O [nafarelin 8NMeArg]
1.45

Same lookup for CC(C)C[C@H](NC(=O)[C@@H](Cc1ccc2ccccc2c1)NC(=O)[C@H](Cc1ccc(O)cc1)NC(=O)[C@H](CO)NC(=O)[C@H](Cc1c[nH]c2ccccc12)NC(=O)[C@H](Cc1cnc[nH]1)N(C)C(=O)[C@@H]1CCC(=O)N1)C(=O)N[C@@H](CCCN=C(N)N)C(=O)N1CCC[C@H]1C(=O)NCC(N)=O [nafarelin 2NMeHis] , please.
0.15

Thanks! And CCNC(=O)[C@@H]1CCCN1C(=O)[C@H](CCCN=C(N)N)NC(=O)[C@H](CC(C)C)NC(=O)[C@@H](CC(C)C)NC(=O)[C@H](Cc1ccc(O)cc1)NC(=O)[C@H](CO)NC(=O)[C@H](Cc1cccc2ccccc12)N(C)C(=O)[C@H](Cc1c[nH]cn1)NC(=O)[C@@H]1CCC(=O)N1 [leuprolide 3NMe1Nal] ?
0.51

Thanks! And CC(C)C[C@H](NC(=O)[C@@H](Cc1ccc2ccccc2c1)NC(=O)[C@H](Cc1ccc(O)cc1)NC(=O)[C@H](CO)NC(=O)[C@H](Cc1c[nH]c2ccccc12)NC(=O)[C@H](Cc1ccccc1)NC(=O)[C@@H]1CCC(=O)N1)C(=O)N[C@@H](CCCN=C(N)N)C(=O)N1CCC[C@H]1C(=O)NCC(N)=O [nafarelin 2Phe] ?
-1.15

Next: CC(C)C[C@H](NC(=O)[C@@H](Cc1c[nH]c2ccccc12)NC(=O)[C@H](Cc1ccc(O)cc1)NC(=O)[C@H](CO)NC(=O)[C@H](Cc1c[nH]c2ccccc12)NC(=O)[C@H](Cc1c[nH]cn1)NC(=O)[C@@H]1CCC(=O)N1)C(=O)N[C@@H](CCCN=C(N)N)C(=O)N1CCC[C@H]1C(=O)N(C)CC(N)=O [deslorelin 10SarNH2]
-0.49

====

biological target: Gonadotropin-releasing hormone receptor (Rattus norvegicus)
Result type: Ki (µM)
The response must be a number in µM with no trailing unit.

Worked examples follow.
Molecule: CCNC(=O)[C@@H]1CCCN1C(=O)[C@H](CCCN=C(N)N)NC(=O)[C@H](CC(C)C)NC(=O)[C@@H](CC(C)C)N(C)C(=O)[C@H](Cc1ccc(O)cc1)NC(=O)[C@H](CO)NC(=O)[C@H](Cc1c[nH]c2ccccc12)NC(=O)[C@H](Cc1cnc[nH]1)NC(=O)[C@@H]1CCC(=O)N1 [leuprolide 6NMeDLeu]
Units of measure: µM
Ki: 0.0038

Molecule: CCNC(=O)[C@@H]1CCCN1C(=O)[C@H](CCCN=C(N)N)N(C)C(=O)[C@H](CC(C)C)NC(=O)[C@@H](CC(C)C)NC(=O)[C@H](Cc1ccc(O)cc1)NC(=O)[C@H](CO)NC(=O)[C@H](Cc1c[nH]c2ccccc12)NC(=O)[C@H](Cc1c[nH]cn1)NC(=O)[C@@H]1CCC(=O)N1 [leuprolide 8NMeArg]
Units of measure: µM
Ki: 0.347

Entry under review: CCNC(=O)[C@@H]1CCCN1C(=O)[C@H](CCCN=C(N)N)NC(=O)[C@H](CC(C)C)NC(=O)[C@@H](CC(C)C)NC(=O)[C@H](Cc1ccc(O)cc1)NC(=O)[C@H](CO)NC(=O)[C@H](Cc1c[nH]c2ccccc12)NC(=O)[C@H](Cc1ccccc1)N(C)C(=O)[C@@H]1CCC(=O)N1 [leuprolide 2NMePhe] . Reported Ki?
0.012
